Tested on: UACC-62 melanoma
Experiment: NCI tumour cell line growth inhibition, 48 h
Collected TGI values appear next to each entry.

{"columns": ["item-smiles", "tested-system", "units-label", "relation", "TGI"],
 "data": [
  ["O=S(=O)(O)c1ccc2c(N=Nc3ccc(Cl)cc3)c(O)ccc2c1", "UACC-62 melanoma", "µM", ">", 100],
  ["COc1ccc(Cn2cc3c(c2-c2ccccc2)CCc2cnoc2-3)cc1N", "UACC-62 melanoma", "µM", ">", 100],
  ["CN1CCN(Cc2ccc3c(NNC(=O)c4ccccc4)nc4cc(F)ccc4n23)CC1", "UACC-62 melanoma", "µM", "=", 3.49],
  ["CN(C)c1ccc(/C=c2/c3ccccc3n3c2c2cc(F)ccc2[n+]3C)cc1", "UACC-62 melanoma", "µM", "=", 6.12],
  ["O=c1oc2ccc(-c3ccc(F)cc3F)cc2c(=O)n1-c1ccc(Cl)c(C(F)(F)F)c1", "UACC-62 melanoma", "µM", "=", 4.15]
]}
